System: Hep-G2
protocol-text: cytotoxicity of INO2 BA with and without BSO, Hep-G2
Type: cell-based
experimental-parameters: Homo sapiens, HepG2; INO2 BA alone, 48 hours; read-out: I50
pIC50: −log10 of the molar value.
value-kind: pIC50

{"columns": ["molecule", "study-target", "value-kind", "measured"],
 "data": [
  ["NC(=O)c1ccc(I)c([N+](=O)[O-])c1 [INO2 BA, 4-iodo-3-nitrobenzamide]", "Hep-G2", "pIC50", 3.92]
]}

###

Test system: E ras cells
protocol-text: cytostatic and cytocidal activity
Type: cell-based, bovine
experimental-parameters: Bos taurus; E ras cells; average of three trials; read-out: Cytostatic Effect I50
pIC50: −log10 of the molar value.
# maps each entry to its pIC50

{"columns": ["molecule", "study-target", "pIC50"],
 "data": [
  ["NC(=O)c1ccc(I)c([N+](=O)[O-])c1 [INO2 BA, 4-iodo-3-nitrobenzamide]", "E ras cells", 4.22],
  ["NC(=O)c1cc([N+](=O)[O-])ccc1I [2-iodo-5-nitrobenzamide]", "E ras cells", 4.92]
]}
